Tested on: Periplaneta americana
Assay: Insecticidal activity against adult male Periplaneta americana (American cockroach) dosed through injection into abdomen assessed as mortality measured 24 hr post dose pre-treated with 50 ug metabolic inhibitor PB 1 hr before compound injection
Format: functional
quantity.name: log(1/MLD)
Simply state the number, no unit and no words.

Guide cases for log(1/MLD), answers given:
CCOc1cc(CN2CCN/C2=N\[N+](=O)[O-])cnc1Cl: 7.87
O=[N+]([O-])/N=C1/NCCN1Cc1cnc(Cl)c(F)c1: 9.91
O=[N+]([O-])/N=C1\NCCN1Cc1ccc(Cl)nc1: 10.15

Would you kindly look at the next entry?
Q: Which measured log(1/MLD) value corresponds to `CCCCOc1cc(CN2CCN/C2=N\[N+](=O)[O-])cnc1Cl` ?
Ans: 8.12
